Each recorded value in this set is attributed to paper PMC6416464.

Could you please report measured % Metabolized at 30 min Incubation with Human Liver Fractions/Enzymes rCYP2C8 for the items listed next?
system-name: UniProt:P10632
Sequence (P10632 1-490): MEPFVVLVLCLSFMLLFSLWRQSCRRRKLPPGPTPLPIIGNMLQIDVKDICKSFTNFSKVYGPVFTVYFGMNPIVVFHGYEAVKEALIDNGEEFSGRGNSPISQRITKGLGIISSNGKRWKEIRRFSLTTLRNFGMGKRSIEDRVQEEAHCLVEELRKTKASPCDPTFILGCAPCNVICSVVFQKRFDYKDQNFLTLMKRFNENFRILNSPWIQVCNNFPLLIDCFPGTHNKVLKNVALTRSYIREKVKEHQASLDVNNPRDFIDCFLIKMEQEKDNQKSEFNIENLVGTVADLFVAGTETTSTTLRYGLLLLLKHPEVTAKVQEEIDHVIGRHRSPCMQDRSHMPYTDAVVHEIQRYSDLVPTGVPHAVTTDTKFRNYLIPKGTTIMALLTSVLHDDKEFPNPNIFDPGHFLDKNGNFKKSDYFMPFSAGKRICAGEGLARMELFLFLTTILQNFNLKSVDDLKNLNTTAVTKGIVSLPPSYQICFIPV
assay-notes: Metabolic stability / reaction phenotyping with recombinant human CYP2C8
protocol-conditions: 1 µM test compound; 100 pmol/mL; 30 min
Report field: quantity (unit follows the number).

Exam item: Consider the molecule shown here: CNC(=O)Oc1cc(C)c(SC)c(C)c1 What is its recorded % Metabolized at 30 min Incubation with Human Liver Fractions/Enzymes rCYP2C8?
Marked response: 41.44%

Exam item: Consider the molecule shown here: CNC(=O)O/N=C/C(C)(C)[S+](C)[O-] (centres unmarked) [Aldicarb sulfoxide, aldicarb sulfoxide] What is its recorded % Metabolized at 30 min Incubation with Human Liver Fractions/Enzymes rCYP2C8?
Marked response: 0.00%

Exam item: Quick one: % Metabolized at 30 min Incubation with Human Liver Fractions/Enzymes rCYP2C8 of CC(C)(O)c1ccccc1CC[C@@H](SCC1(CC(=O)O)CC1)c1cccc(/C=C/c2ccc3ccc(Cl)cc3n2)c1 [Montelukast, montelukast, reference compound] ?
Marked response: 52.29%

Exam item: Recorded % Metabolized at 30 min Incubation with Human Liver Fractions/Enzymes rCYP2C8 for CC(=O)O[C@H]1C(=O)[C@@]2(C)[C@H]([C@H](OC(=O)c3ccccc3)[C@]3(O)C[C@H](OC(=O)[C@H](O)[C@@H](NC(=O)c4ccccc4)c4ccccc4)C(C)=C1C3(C)C)[C@]1(OC(C)=O)CO[C@@H]1C[C@@H]2O , please?
Marked response: 11.21%

Exam item: What value of % Metabolized at 30 min Incubation with Human Liver Fractions/Enzymes rCYP2C8 has been reported for the following molecule? CNC(=O)O/N=C/C(C)(C)SC
Marked response: 13.26%

Exam item: Item O=C1Cc2cc(CCN3CCN(c4nsc5ccccc45)CC3)c(Cl)cc2N1 [Ziprasidone, ziprasidone, reference compound] has what recorded % Metabolized at 30 min Incubation with Human Liver Fractions/Enzymes rCYP2C8?
Marked response: 22.84%

Exam item: Look at this molecule and give its reported % Metabolized at 30 min Incubation with Human Liver Fractions/Enzymes rCYP2C8. CCCSc1ccc2nc(NC(=O)OC)[nH]c2c1 [Albendazole, albendazole, reference compound]
Marked response: 2.43%

Exam item: Param item = CSc1nc2cc(Cl)c(Oc3cccc(Cl)c3Cl)cc2[nH]1 [Triclabendazole, reference compound] ; retrieve measured % Metabolized at 30 min Incubation with Human Liver Fractions/Enzymes rCYP2C8.
Marked response: 0.00%

---

system-name: CYP3A4 (Homo sapiens, UniProt P08684)
Sequence (P08684 2-503): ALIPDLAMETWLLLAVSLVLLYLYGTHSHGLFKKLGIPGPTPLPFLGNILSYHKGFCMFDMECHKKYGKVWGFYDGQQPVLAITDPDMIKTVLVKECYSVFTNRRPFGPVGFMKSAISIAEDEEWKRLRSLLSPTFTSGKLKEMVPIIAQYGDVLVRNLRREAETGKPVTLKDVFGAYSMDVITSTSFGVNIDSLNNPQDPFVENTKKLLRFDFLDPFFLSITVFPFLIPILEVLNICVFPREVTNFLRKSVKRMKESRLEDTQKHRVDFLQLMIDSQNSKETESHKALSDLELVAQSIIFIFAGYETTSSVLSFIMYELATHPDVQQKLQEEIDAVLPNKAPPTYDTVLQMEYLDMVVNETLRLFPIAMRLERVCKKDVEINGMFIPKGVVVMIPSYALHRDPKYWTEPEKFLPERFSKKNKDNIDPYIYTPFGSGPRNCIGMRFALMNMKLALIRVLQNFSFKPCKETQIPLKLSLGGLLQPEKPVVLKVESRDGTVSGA
assay-notes: in vitro
protocol-conditions: microsomes, pH 7.4
reported-endpoint: inhibition at 10 µM

Exam item: Consider the molecule CC(C)(O)c1ccccc1CC[C@@H](SCC1(CC(=O)O)CC1)c1cccc(/C=C/c2ccc3ccc(Cl)cc3n2)c1 [Montelukast, montelukast, reference compound] and give its measured inhibition at 10 µM.
Marked response: 48%

Exam item: Which value of inhibition at 10 µM has been reported for CNC(=O)O/N=C/C(C)(C)[S+](C)[O-] (centres unmarked) [Aldicarb sulfoxide, aldicarb sulfoxide] in the records?
Marked response: < 0%

Exam item: # query: inhibition at 10 µM of entry CNC(=O)Oc1cc(C)c(SC)c(C)c1 [Methiocarb, methiocarb]
Marked response: < 0%

Exam item: What value of measured inhibition at 10 µM is listed for O=C1Cc2cc(CCN3CCN(c4nsc5ccccc45)CC3)c(Cl)cc2N1 [Ziprasidone, ziprasidone, reference compound] ?
Marked response: 31.1%

Exam item: Given the entry CSc1nc2cc(Cl)c(Oc3cccc(Cl)c3Cl)cc2[nH]1 [Triclabendazole, reference compound] , report its measured inhibition at 10 µM.
Marked response: < 0%

Exam item: For the molecule CNC(=O)O/N=C/C(C)(C)S(C)(=O)=O [Aldicarb sulfone, aldicarb sulfone] , what inhibition at 10 µM is on record?
Marked response: < 0%

Exam item: Record request: inhibition at 10 µM value, item CCC[S+]([O-])c1ccc2[nH]c(NC(=O)OC)nc2c1 (centres unmarked) [Albendazole sulfoxide, albendazole sulfoxide]
Marked response: < 0%

Exam item: Fill in the blank: the reported inhibition at 10 µM of CNC(=O)O/N=C/C(C)(C)SC [Aldicarb, aldicarb] is ____.
Marked response: < 0%

---

system-name: rCYP2C19 (Homo sapiens)
Sequence (P33261 whole entry): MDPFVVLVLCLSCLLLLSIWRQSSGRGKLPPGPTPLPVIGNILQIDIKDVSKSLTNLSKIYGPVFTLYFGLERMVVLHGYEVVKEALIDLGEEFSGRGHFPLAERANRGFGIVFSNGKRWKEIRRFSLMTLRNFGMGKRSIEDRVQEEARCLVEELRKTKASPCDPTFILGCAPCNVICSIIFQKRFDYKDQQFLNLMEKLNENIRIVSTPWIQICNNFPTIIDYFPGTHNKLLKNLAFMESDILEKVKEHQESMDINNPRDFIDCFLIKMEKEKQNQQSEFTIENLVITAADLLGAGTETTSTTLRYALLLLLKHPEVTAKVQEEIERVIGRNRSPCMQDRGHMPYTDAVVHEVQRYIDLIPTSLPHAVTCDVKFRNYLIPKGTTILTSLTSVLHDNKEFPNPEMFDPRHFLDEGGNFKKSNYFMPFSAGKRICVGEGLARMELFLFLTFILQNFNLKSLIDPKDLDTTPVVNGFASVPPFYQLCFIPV
assay-notes: Metabolic stability / reaction phenotyping with recombinant human CYP2C19
protocol-conditions: human, recombinant human CYP2C19, 1 µM, pH 7.4
Criterion met means recorded rCYP Clint, CYP2C19 is 0.07 µL/min/pmol or above; Criterion not met means it is below 0.07 µL/min/pmol.

Exam item: Please tell me: is the compound O=C1Cc2cc(CCN3CCN(c4nsc5ccccc45)CC3)c(Cl)cc2N1 [Ziprasidone, ziprasidone, reference compound] at or over 0.07 µL/min/pmol in terms of rCYP Clint, CYP2C19?
Marked response: Criterion met

Exam item: Is rCYP Clint, CYP2C19 at least 0.07 µL/min/pmol? Consider CNC(=O)O/N=C/C(C)(C)[S+](C)[O-] (centres unmarked) [Aldicarb sulfoxide, aldicarb sulfoxide]
Marked response: Criterion not met

Exam item: Say whether CSc1nc2cc(Cl)c(Oc3cccc(Cl)c3Cl)cc2[nH]1 [Triclabendazole, reference compound] shows rCYP Clint, CYP2C19 of 0.07 µL/min/pmol or more.
Marked response: Criterion met

Exam item: hey, is rCYP Clint, CYP2C19 for this one >= 0.07 µL/min/pmol? CCCSc1ccc2nc(NC(=O)OC)[nH]c2c1 [Albendazole, albendazole, reference compound]
Marked response: Criterion met

---

system-name: CYP2C8 (Homo sapiens, UniProt P10632)
assay-notes: CYP inhibition in human liver microsomes, CYP2C8
protocol-conditions: human, human liver microsomes, pH 7.4, probe paclitaxel
reported-endpoint: inhibition at 2 µM

Exam item: Query (compound): CCC[S+]([O-])c1ccc2[nH]c(NC(=O)OC)nc2c1 (stereo not drawn) [Albendazole sulfoxide, albendazole sulfoxide] ; field requested: inhibition at 2 µM
Marked response: < 0%

Exam item: Which measured inhibition at 2 µM value corresponds to CNC(=O)O/N=C/C(C)(C)[S+](C)[O-] (stereo not drawn) [Aldicarb sulfoxide, aldicarb sulfoxide] ?
Marked response: < 0%

Exam item: Quick check: inhibition at 2 µM of CNC(=O)Oc1cc(C)c(SC)c(C)c1 ?
Marked response: < 0%

---

Consider the following compounds; for each one, report its inhibition at 10 µM.
system-name: CYP3A4 (Homo sapiens)
assay-notes: in vitro
protocol-conditions: microsomes, pH 7.4, % Inhibition of Control Activity CYP3A4 (substrate, testosterone)

Exam item: For the compound CNC(=O)O/N=C/C(C)(C)S(C)(=O)=O , what inhibition at 10 µM is on record?
Marked response: < 0%

Exam item: What value of inhibition at 10 µM has been reported for the following compound? CNC(=O)O/N=C/C(C)(C)[S+](C)[O-] (stereo not drawn) [Aldicarb sulfoxide, aldicarb sulfoxide]
Marked response: < 0%

Exam item: Returns the measured inhibition at 10 µM for the input compound. Input: CNC(=O)O/N=C/C(C)(C)SC
Marked response: < 0%

---

system-name: rCYP2C8 (Homo sapiens)
Sequence (P10632 1-490): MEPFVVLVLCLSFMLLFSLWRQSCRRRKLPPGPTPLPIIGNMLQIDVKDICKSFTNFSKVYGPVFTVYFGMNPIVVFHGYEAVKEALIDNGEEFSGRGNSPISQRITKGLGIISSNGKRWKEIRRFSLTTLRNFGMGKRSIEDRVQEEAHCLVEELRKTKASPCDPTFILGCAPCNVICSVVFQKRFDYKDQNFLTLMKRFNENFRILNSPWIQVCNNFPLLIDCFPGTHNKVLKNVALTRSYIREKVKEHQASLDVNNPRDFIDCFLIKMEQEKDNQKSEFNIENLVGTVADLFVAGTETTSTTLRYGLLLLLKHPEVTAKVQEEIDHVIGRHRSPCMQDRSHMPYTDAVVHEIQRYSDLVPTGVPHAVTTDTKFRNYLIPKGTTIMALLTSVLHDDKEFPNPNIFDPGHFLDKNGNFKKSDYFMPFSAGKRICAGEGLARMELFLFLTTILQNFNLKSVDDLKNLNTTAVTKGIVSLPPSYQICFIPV
assay-notes: Metabolic stability / reaction phenotyping with recombinant human CYP2C8
protocol-conditions: human, recombinant human CYP2C8, 1 µM, pH 7.4
For each entry below, report its rCYP Clint, CYP2C8 value.
Just the number in µL/min/pmol, nothing appended.

Exam item: What value of measured rCYP Clint, CYP2C8 is listed for O=C1Cc2cc(CCN3CCN(c4nsc5ccccc45)CC3)c(Cl)cc2N1 [Ziprasidone, ziprasidone, reference compound] ?
Marked response: 0.086

Exam item: Report rCYP Clint, CYP2C8 for CCCSc1ccc2nc(NC(=O)OC)[nH]c2c1 [Albendazole, albendazole, reference compound] please.
Marked response: 0.008

Exam item: rCYP Clint, CYP2C8 lookup needed for CC(C)(O)c1ccccc1CC[C@@H](SCC1(CC(=O)O)CC1)c1cccc(/C=C/c2ccc3ccc(Cl)cc3n2)c1 [Montelukast, montelukast, reference compound] , thanks.
Marked response: 0.247

Exam item: Look at this molecule and give its reported rCYP Clint, CYP2C8. CNC(=O)Oc1cc(C)c(SC)c(C)c1
Marked response: 0.178
